# Tested on: Mtb H37Rv
# assay-comment: TB MIC - SRI, resazurin-based microplate assay
# Format: cell-based, Mycobacterium tuberculosis
# conditions-used: Mycobacterium tuberculosis, H37RV, Tables P1-P3; read-out: TB MIC - SRI
Mark each entry True if its MIC sits below 0.6 µg/mL, and False for all others.

## Input Consider CC(C)CC(C)Nc1n[n+]([O-])c2ccccc2[n+]1[O-] (stereo not shown) . Does its MIC lie strictly below 0.6 µg/mL?
## Output False

## Input Consider CCC(COC)Nc1n[n+]([O-])c2cc(Cl)ccc2[n+]1[O-] (stereo not shown) . Does its MIC lie strictly below 0.6 µg/mL?
## Output False

## Input Consider "[O-][n+]1nc(N2CCCC2)[n+]([O-])c2ccccc21" . Does its MIC lie strictly below 0.6 µg/mL?
## Output True

## Input Consider CCC(COC)Nc1n[n+]([O-])c2ccccc2[n+]1[O-] (stereo not shown) . Does its MIC lie strictly below 0.6 µg/mL?
## Output False

## Input Consider "CN(Cc1ccccc1)c1n[n+]([O-])c2cc3c(cc2[n+]1[O-])CCC3" . Does its MIC lie strictly below 0.6 µg/mL?
## Output True

## Input Consider CC(C)(C)C1CCC(Nc2n[n+]([O-])c3ccccc3[n+]2[O-])CC1 (stereo not shown) . Does its MIC lie strictly below 0.6 µg/mL?
## Output False

## Input Consider "Nc1n[n+]([O-])c2cc3c(cc2[n+]1[O-])CCC3" . Does its MIC lie strictly below 0.6 µg/mL?
## Output False

## Input Consider CC1CCCCN1c1n[n+]([O-])c2cc3c(cc2[n+]1[O-])CCC3 (stereo not shown) . Does its MIC lie strictly below 0.6 µg/mL?
## Output False

## Input Consider CC(C)CC(C)Nc1n[n+]([O-])c2cc(F)ccc2[n+]1[O-] (stereo not shown) . Does its MIC lie strictly below 0.6 µg/mL?
## Output False

## Input Consider "[O-][n+]1nc(NC2CCC2)[n+]([O-])c2ccccc21" . Does its MIC lie strictly below 0.6 µg/mL?
## Output False

## Input Consider "[O-][n+]1nc(NC2CCCC2)[n+]([O-])c2ccc(Br)cc21" . Does its MIC lie strictly below 0.6 µg/mL?
## Output True

## Input Consider "CCC(CC)Nc1n[n+]([O-])c2ccccc2[n+]1[O-]" . Does its MIC lie strictly below 0.6 µg/mL?
## Output False

## Input Consider "CCN(CC)c1n[n+]([O-])c2ccccc2[n+]1[O-]" . Does its MIC lie strictly below 0.6 µg/mL?
## Output True

## Input Consider C[C@@H]1[C@H]2C[C@@H](C[C@H]1Nc1n[n+]([O-])c3ccccc3[n+]1[O-])C2(C)C (racemic) . Does its MIC lie strictly below 0.6 µg/mL?
## Output False

## Input Consider "[O-][n+]1nc(NC2CCCC2)[n+]([O-])c2ccc(F)cc21" . Does its MIC lie strictly below 0.6 µg/mL?
## Output True

## Input Consider "CN(C)c1n[n+]([O-])c2cc3c(cc2[n+]1[O-])CCC3" . Does its MIC lie strictly below 0.6 µg/mL?
## Output False

## Input Consider "[O-][n+]1nc(NC2CCC2)[n+]([O-])c2cc3c(cc21)CCC3" . Does its MIC lie strictly below 0.6 µg/mL?
## Output False

## Input Consider "CCC(CC)Nc1n[n+]([O-])c2cc(F)ccc2[n+]1[O-]" . Does its MIC lie strictly below 0.6 µg/mL?
## Output False

## Input Consider "Nc1n[n+]([O-])c2cc(Br)ccc2[n+]1[O-]" . Does its MIC lie strictly below 0.6 µg/mL?
## Output False

---

# Tested on: Vero cells
# conditions-used: African green monkey, 72 h
reported-endpoint: Vero Tox CC50

## Input Retrieve Vero Tox CC50 measured for COc1ccc2c(c1)[n+]([O-])nc(NC1CCC1)[n+]2[O-] [Compound 15dd] and print it.
## Output 9.8 µg/mL

## Input Retrieve Vero Tox CC50 measured for [O-][n+]1nc(N2CCOCC2)[n+]([O-])c2ccccc21 [Compound 17p] and print it.
## Output 5.4 µg/mL

## Input Retrieve Vero Tox CC50 measured for COc1cc2c(cc1C)[n+]([O-])nc(NC1CCC1)[n+]2[O-] [Compound 15gd] and print it.
## Output >50 µg/mL

## Input Retrieve Vero Tox CC50 measured for CCNc1n[n+]([O-])c2cc(Br)ccc2[n+]1[O-] [Compound 15ca] and print it.
## Output 4.2 µg/mL

## Input Retrieve Vero Tox CC50 measured for "[O-][n+]1nc(NC2CCCC2)[n+]([O-])c2ccccc21" and print it.
## Output 10 µg/mL

## Input Retrieve Vero Tox CC50 measured for Cc1cccc2c1[n+]([O-])c(NC1CCC1)n[n+]2[O-] [Compound 15ed] and print it.
## Output 22 µg/mL

## Input Retrieve Vero Tox CC50 measured for CCN(CC)c1n[n+]([O-])c2ccccc2[n+]1[O-] [Compound 17o] and print it.
## Output 12 µg/mL

## Input Retrieve Vero Tox CC50 measured for "[O-][n+]1nc(N[C@@H]2C[C@H]3CC[C@@H]2C3)[n+]([O-])c2ccccc21" and print it.
## Output 3.4 µg/mL

## Input Retrieve Vero Tox CC50 measured for [O-][n+]1nc(N[C@@H]2C[C@H]3CC[C@@H]2C3)[n+]([O-])c2cc3c(cc21)CCC3 [Compound 15fm] and print it.
## Output >50 µg/mL

## Input Retrieve Vero Tox CC50 measured for CO[C@H]1/C=C/O[C@@]2(C)Oc3c(C)c(O)c4c(O)c(c(/C=N/N5CCN(C)CC5)c(O)c4c3C2=O)NC(=O)/C(C)=C\C=C\[C@H](C)[C@H](O)[C@@H](C)[C@@H](O)[C@@H](C)[C@H](OC(C)=O)[C@@H]1C [RIF, Rifampin, reference compound] and print it.
## Output >50 µg/mL

---

# Tested on: Vero cells
# conditions-used: African green monkey, 72 h
Task for the reader: assign each of the following molecules its reported VERO Tox-SRI.
Enter the number alone.

## Input Retrieve VERO Tox-SRI measured for "COc1ccc2c(c1)[n+]([O-])nc(NC1CCC1)[n+]2[O-]" and print it.
## Output 9.85

## Input Retrieve VERO Tox-SRI measured for "COc1cc2c(cc1C)[n+]([O-])nc(N[C@@H]1C[C@H]3CC[C@@H]1C3)[n+]2[O-]" and print it.
## Output 50

## Input Retrieve VERO Tox-SRI measured for "[O-][n+]1nc(N[C@@H]2C[C@H]3CC[C@@H]2C3)[n+]([O-])c2ccc(Br)cc21" and print it.
## Output 0.81

## Input Retrieve VERO Tox-SRI measured for "CCNc1n[n+]([O-])c2cc(Cl)ccc2[n+]1[O-]" and print it.
## Output 2.65

## Input Retrieve VERO Tox-SRI measured for "Cc1cccc2c1[n+]([O-])c(NC1CCCC1)n[n+]2[O-]" and print it.
## Output 3.7

## Input Retrieve VERO Tox-SRI measured for CCC(COC)Nc1n[n+]([O-])c2cc(F)ccc2[n+]1[O-] (stereo not drawn) and print it.
## Output 6.3

---

# assay-comment: in vitro
# conditions-used: African green monkey, VERO Tox (CC50)
reported-endpoint: CC50 at 72 h (µg/mL)
Return type: number; implicit unit µg/mL.

## Input Retrieve CC50 at 72 h measured for CCCC(C)Nc1n[n+]([O-])c2ccccc2[n+]1[O-] (stereo not drawn) and print it.
## Output 26.3

## Input Retrieve CC50 at 72 h measured for CC(Nc1n[n+]([O-])c2ccccc2[n+]1[O-])C(C)(C)C (stereo not drawn) and print it.
## Output 20.2

## Input Retrieve CC50 at 72 h measured for CCC(COC)Nc1n[n+]([O-])c2cc(F)ccc2[n+]1[O-] (stereo not drawn) [Compound 15ai] and print it.
## Output 6.3

## Input Retrieve CC50 at 72 h measured for CC1CC(Nc2n[n+]([O-])c3ccccc3[n+]2[O-])CC(C)(C)C1 (stereo not drawn) and print it.
## Output 5.2

## Input Retrieve CC50 at 72 h measured for C[C@@H]1[C@H]2C[C@@H](C[C@H]1Nc1n[n+]([O-])c3ccccc3[n+]1[O-])C2(C)C (racemic) and print it.
## Output 4.6

## Input Retrieve CC50 at 72 h measured for CC(C)CC(C)Nc1n[n+]([O-])c2ccccc2[n+]1[O-] (stereo not drawn) and print it.
## Output 11.7

## Input Retrieve CC50 at 72 h measured for "CCC(CC)Nc1n[n+]([O-])c2ccccc2[n+]1[O-]" and print it.
## Output 36.5

## Input Retrieve CC50 at 72 h measured for C[C@@H](Nc1n[n+]([O-])c2ccccc2[n+]1[O-])C1CCCCC1 (racemic) and print it.
## Output 8.9
